Measured R0 values are reported for all entries that follow.
# system-under-test: T1, recombinant cynomolgus ApoC3 (cynomolgus monkey, UniProt P18659 21-99, biotinylated in the captured-antigen assays (Tables 6 and 8); sites not stated)
# T1 construct: No cleavage site is stated, so none is applied; also called rcyApoC3; bio-rcyApoC3
# T1 sequence (P18659 21-99 limits assumed): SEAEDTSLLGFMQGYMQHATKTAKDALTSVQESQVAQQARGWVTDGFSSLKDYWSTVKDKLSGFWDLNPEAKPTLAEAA
# procedure-details: SPR, biotinylated antigen captured on SA chip, scFv periplasmic extract injected, pH 7.4
Give the value, in units of RU, as a plain number.

binder | R0 (RU)
29G11 scFv (scFv, part only; not given: scFv linker, domain order, c-myc tag, V domains shown, not shown: another chain or arm of the molecule; small tags and cut ends) VH: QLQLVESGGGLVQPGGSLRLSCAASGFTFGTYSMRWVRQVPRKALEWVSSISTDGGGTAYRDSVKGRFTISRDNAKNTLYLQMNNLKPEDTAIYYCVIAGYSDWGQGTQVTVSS VL: DVVLTQTPGSLSVVPGGSASISCKASQSLVYSDGKTYLYWLRQKPGQSPQRLIYQVSNRPSGVPDRFTGSGSGTDFTLKISGVKAEDAGVYYCAQDTYSTKTFGQGTKLEIK | 92.7
29A06 scFv (scFv, part only; not given: scFv linker, domain order, c-myc tag, V domains shown, not shown: another chain or arm of the molecule; small tags and cut ends) VH: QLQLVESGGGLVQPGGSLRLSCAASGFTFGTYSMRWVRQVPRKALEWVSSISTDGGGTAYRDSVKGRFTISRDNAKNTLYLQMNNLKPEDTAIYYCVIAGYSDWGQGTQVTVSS VL: DVVLTQTPGSLSVVPGESASISCKASQNLVHSNGKTYLYWLLQKPGQSPQRLIYQVSNRGSEVPDRFTGSGSGTDFTLKISGVKAEDAGVYYCAQGTYWPKTFGQGTKLEIK | 125
29F10 scFv (scFv, part only; not given: scFv linker, domain order, c-myc tag, V domains shown, not shown: another chain or arm of the molecule; large carriers; small tags and cut ends) VH: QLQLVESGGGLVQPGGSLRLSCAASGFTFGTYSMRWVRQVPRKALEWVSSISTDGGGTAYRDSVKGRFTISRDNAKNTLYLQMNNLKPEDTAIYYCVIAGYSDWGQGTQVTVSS VL: DVVLTQTPGSLSVVPGEPASVSCKASQSLVHPDGKTYLYWLLQKPGQSPQRLIYQVSNRGSGVPDRFTGSGSGTDFTLEISGVKAEDAGVYYCAQGTYWPKTFGQGTKLEIK | 52

Field: next binder
Request: Using known records, supply R0 for 29A05 scFv (scFv, part only; not given: scFv linker, domain order, c-myc tag, V domains shown, not shown: another chain or arm of the molecule; small tags and cut ends) VH: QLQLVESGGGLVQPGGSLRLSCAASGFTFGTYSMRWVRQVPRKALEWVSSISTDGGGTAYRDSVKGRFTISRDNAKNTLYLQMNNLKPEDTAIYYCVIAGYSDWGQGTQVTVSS VL: DVVLTQTPGSLSVVPGESASISCKASQSLVYSDGKTYLYWLLQKPGQSPQRLIYQVSNRDSGVPDRFTGSGSGTDFTLKISGVKVEDAGVYYCAQGTYWPKTFGQGTKLEIK
Result: 145

Where do the numbers come from? From patent US20210347865A1.
